test system: HK-2; assay: Proliferation assay, normal cell line surrogate HK-2; type: cell-based, human; conditions: Homo sapiens, HK-2, 96 h, HK-2, single agent, 4 days
Assay readout: IC50 (µM)
# output: bare number, implied unit µM

Fill blank: measured IC50 of the molecule CN1CCN(c2ccc(-c3ccc4c(c3)[C@H](c3c[nH]c5ccccc35)N(S(=O)(=O)Cc3ccccc3)C4)cc2)CC1 [Compound 1] is ____.
3.92

----------
system: normal cells; experiment: Toxicity on normal cells (summary of the normal cell line surrogates); assay type: cell-based, human; conditions: normal cell surrogates HEK293, CCD841, HK-2; listed as JKYN-1; read-out: toxicity (IC50) on normal cells, approximate
Assay readout: IC50

Entry CN1CCN(c2ccc(-c3ccc4c(c3)[C@H](c3c[nH]c5ccccc35)N(S(=O)(=O)Cc3ccccc3)C4)cc2)CC1 : reported IC50 = ?
4 to 6 µM

All figures here come from patent US20240083883A1.
